Listed below: pIC50 values for each entry.
# assayTarget: TYK2 (Homo sapiens, UniProt P29597)
# Sequence (P29597 whole entry): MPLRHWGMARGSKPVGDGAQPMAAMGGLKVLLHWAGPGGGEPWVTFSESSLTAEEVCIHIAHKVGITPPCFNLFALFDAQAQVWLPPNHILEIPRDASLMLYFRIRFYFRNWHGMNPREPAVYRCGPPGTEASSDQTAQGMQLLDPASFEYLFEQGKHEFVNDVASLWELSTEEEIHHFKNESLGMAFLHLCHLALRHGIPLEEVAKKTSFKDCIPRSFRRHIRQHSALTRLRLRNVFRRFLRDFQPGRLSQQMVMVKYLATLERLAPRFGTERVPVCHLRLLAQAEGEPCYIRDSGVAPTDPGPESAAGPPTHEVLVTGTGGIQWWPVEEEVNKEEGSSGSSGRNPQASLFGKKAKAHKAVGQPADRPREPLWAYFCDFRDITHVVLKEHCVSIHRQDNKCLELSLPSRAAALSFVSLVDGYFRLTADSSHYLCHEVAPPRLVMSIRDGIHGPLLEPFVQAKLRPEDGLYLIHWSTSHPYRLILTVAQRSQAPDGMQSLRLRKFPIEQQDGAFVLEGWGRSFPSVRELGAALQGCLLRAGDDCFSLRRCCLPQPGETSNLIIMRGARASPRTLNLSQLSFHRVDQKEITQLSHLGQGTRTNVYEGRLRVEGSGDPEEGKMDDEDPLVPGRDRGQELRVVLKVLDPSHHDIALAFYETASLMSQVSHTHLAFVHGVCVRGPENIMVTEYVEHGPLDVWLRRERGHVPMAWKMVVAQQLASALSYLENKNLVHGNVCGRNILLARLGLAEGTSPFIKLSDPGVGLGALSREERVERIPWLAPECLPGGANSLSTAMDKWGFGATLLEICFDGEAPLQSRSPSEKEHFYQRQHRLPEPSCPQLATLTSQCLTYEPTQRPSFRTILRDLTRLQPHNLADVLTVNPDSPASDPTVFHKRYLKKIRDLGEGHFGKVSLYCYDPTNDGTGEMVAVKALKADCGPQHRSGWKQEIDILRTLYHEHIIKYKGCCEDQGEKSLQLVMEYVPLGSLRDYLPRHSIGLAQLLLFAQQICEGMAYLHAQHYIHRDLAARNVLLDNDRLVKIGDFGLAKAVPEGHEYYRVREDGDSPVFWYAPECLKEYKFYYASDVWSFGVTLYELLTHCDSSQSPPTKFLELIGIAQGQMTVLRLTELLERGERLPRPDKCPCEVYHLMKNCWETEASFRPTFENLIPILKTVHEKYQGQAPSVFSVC
# protocolDetails: Lance Ultra Kinase Assay, recombinant TYK2
# measurementParameters: 5 mM ATP
pIC50: −log10 of the molar value.

{"compound": "CNC(=O)COc1cncc(Nc2ncc(F)c(-c3c[nH]c4c(NC(=O)[C@@H](COC)N5CCN(C)CC5)cccc34)n2)c1", "valueRelationSign": "=", "pIC50": 5.91}
{"compound": "COC[C@H](C(=O)Nc1cccc2c(-c3nc(Nc4ccc(NC(C)=O)nc4)ncc3F)c[nH]c12)N1CCN(C)CC1", "valueRelationSign": "=", "pIC50": 5.77}
{"compound": "COC[C@H](C(=O)Nc1cccc2c(-c3nc(Nc4cnn(-c5cccc(CO)c5)c4)ncc3F)c[nH]c12)N1CCN(C)CC1", "valueRelationSign": "=", "pIC50": 6.22}
{"compound": "COC[C@H](C(=O)Nc1cccc2c(-c3nc(Nc4cnn(C5CCOCC5)c4)ncc3F)c[nH]c12)N1CCN(C)CC1", "valueRelationSign": "=", "pIC50": 5.96}
{"compound": "COC[C@H](C(=O)Nc1cccc2c(-c3nc(Nc4ccc5c(c4)C(=O)OCC5)ncc3F)c[nH]c12)N1CCN(C)CC1", "valueRelationSign": "=", "pIC50": 6.29}
{"compound": "COC[C@H](C(=O)Nc1cccc2c(-c3nc(Nc4cnn(C5CCOC5)c4)ncc3F)c[nH]c12)N1CCN(C)CC1 (single isomer, unassigned; isomer 1) [Example 30]", "valueRelationSign": "=", "pIC50": 5.93}
{"compound": "COC[C@H](C(=O)Nc1cccc2c(-c3nc(Nc4ccc5c(CO)ncn5c4)ncc3F)c[nH]c12)N1CCN(C)CC1", "valueRelationSign": "<", "pIC50": 5.00}
{"compound": "COC[C@H](C(=O)Nc1cccc2c(-c3nc(Nc4cncc(O)c4)ncc3F)c[nH]c12)N1CCN(C)CC1", "valueRelationSign": "=", "pIC50": 5.93}
{"compound": "COC[C@H](C(=O)Nc1cccc2c(-c3nc(Nc4ccc5[nH]ccc5c4)ncc3F)c[nH]c12)N1CCN(C)CC1", "valueRelationSign": "=", "pIC50": 5.85}
{"compound": "COC[C@H](C(=O)Nc1cccc2c(-c3nc(Nc4ccc5c(c4)NC(=O)C5)ncc3F)c[nH]c12)N1CCN(C)CC1", "valueRelationSign": "=", "pIC50": 6.00}
{"compound": "CCOC(=O)Cc1ccc(Nc2ncc(F)c(-c3c[nH]c4c(NC(=O)[C@@H](COC)N5CCN(C)CC5)cccc34)n2)cn1", "valueRelationSign": "=", "pIC50": 5.88}
{"compound": "COC[C@H](C(=O)Nc1cccc2c(-c3nc(Nc4cncc(CCCO)c4)ncc3F)c[nH]c12)N1CCN(C)CC1", "valueRelationSign": "=", "pIC50": 6.56}
{"compound": "COC[C@H](C(=O)Nc1cccc2c(-c3nc(Nc4cnc(CO)c(C)c4)ncc3F)c[nH]c12)N1CCN(C)CC1", "valueRelationSign": "=", "pIC50": 6.81}
{"compound": "COC[C@H](C(=O)Nc1cccc2c(-c3nc(Nc4cc(CO)c5cn[nH]c5c4)ncc3F)c[nH]c12)N1CCN(C)CC1", "valueRelationSign": "=", "pIC50": 6.71}
{"compound": "COC[C@H](C(=O)Nc1cccc2c(-c3nc(Nc4ccc(CO)nc4)ncc3F)c[nH]c12)N1CCN(C)CC1", "valueRelationSign": "=", "pIC50": 6.19}
{"compound": "COC[C@H](C(=O)Nc1cccc2c(-c3nc(Nc4ccc(NC(=O)OC)nc4)ncc3F)c[nH]c12)N1CCN(C)CC1", "valueRelationSign": "=", "pIC50": 5.66}
{"compound": "COC[C@H](C(=O)Nc1cccc2c(-c3nc(Nc4ccc(-n5ccnc5)nc4)ncc3F)c[nH]c12)N1CCN(C)CC1", "valueRelationSign": "=", "pIC50": 5.59}
{"compound": "COC[C@H](C(=O)Nc1cccc2c(-c3nc(Nc4ccc(C(C)O)nc4)ncc3F)c[nH]c12)N1CCN(C)CC1 (single isomer, unassigned; isomer 1) [Example 29]", "valueRelationSign": "=", "pIC50": 6.03}
{"compound": "COC[C@H](C(=O)Nc1cccc2c(-c3nc(Nc4ccc5[nH]ncc5c4)ncc3F)c[nH]c12)N1CCN(C)CC1", "valueRelationSign": "=", "pIC50": 5.83}
{"compound": "COC[C@H](C(=O)Nc1cccc2c(-c3nc(Nc4ccc(CCO)nc4)ncc3F)c[nH]c12)N1CCN(C)CC1", "valueRelationSign": "=", "pIC50": 5.87}
{"compound": "COC[C@H](C(=O)Nc1cccc2c(-c3nc(Nc4ccnc(CCC(=O)OC)c4)ncc3F)c[nH]c12)N1CCN(C)CC1", "valueRelationSign": "=", "pIC50": 5.84}
{"compound": "COC[C@H](C(=O)Nc1cccc2c(-c3nc(Nc4ccc(NC(=O)CO)nc4)ncc3F)c[nH]c12)N1CCN(C)CC1", "valueRelationSign": "=", "pIC50": 6.07}
{"compound": "COC[C@H](C(=O)Nc1cccc2c(-c3nc(Nc4ccc5c(C(=O)OC)n[nH]c5c4)ncc3F)c[nH]c12)N1CCN(C)CC1", "valueRelationSign": "<", "pIC50": 5.00}
{"compound": "COC[C@H](C(=O)Nc1cccc2c(-c3nc(Nc4ccc5c(C)n[nH]c5c4)ncc3F)c[nH]c12)N1CCN(C)CC1", "valueRelationSign": "=", "pIC50": 5.92}
{"compound": "CNCCOc1ccc(Nc2ncc(F)c(-c3c[nH]c4c(NC(=O)[C@@H](COC)N5CCN(C)CC5)cccc34)n2)cn1", "valueRelationSign": "=", "pIC50": 5.62}
{"compound": "COC[C@H](C(=O)Nc1cccc2c(-c3nc(Nc4ccc5scnc5c4)ncc3F)c[nH]c12)N1CCN(C)CC1", "valueRelationSign": "=", "pIC50": 5.90}

Values from patent US12606544B2
